Target: Cytochrome P450 1A2 (Homo sapiens) (UniProt P05177)
Sequence (P05177 whole entry, looked up): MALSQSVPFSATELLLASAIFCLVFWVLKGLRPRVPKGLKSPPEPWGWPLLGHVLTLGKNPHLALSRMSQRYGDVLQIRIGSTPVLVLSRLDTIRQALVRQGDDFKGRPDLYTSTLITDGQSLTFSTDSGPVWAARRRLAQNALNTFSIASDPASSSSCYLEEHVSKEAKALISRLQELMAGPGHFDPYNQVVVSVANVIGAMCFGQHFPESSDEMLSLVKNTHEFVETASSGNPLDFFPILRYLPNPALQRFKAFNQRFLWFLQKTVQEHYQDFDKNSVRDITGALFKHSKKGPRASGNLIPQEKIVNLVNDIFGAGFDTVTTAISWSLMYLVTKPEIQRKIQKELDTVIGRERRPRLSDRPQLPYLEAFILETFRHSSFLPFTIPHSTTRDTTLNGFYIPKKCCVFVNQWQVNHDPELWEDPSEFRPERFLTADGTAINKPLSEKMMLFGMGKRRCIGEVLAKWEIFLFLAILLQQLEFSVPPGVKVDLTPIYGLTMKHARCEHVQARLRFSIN
Test: Cytochrome panel assay with activity outcomes; note: % is set by controls: 0 for no effect and ±100 for the full control effect
Conditions: recombinant CYP, pro-luciferin dealkylation, luminescence, p450-cyp1a2; series mostly up to 57.1 µM
The campaign covered roughly 16,000 compounds. About 5,700 (36%) were called active. Another 24% or so got no clear call; they are omitted. The list shows a part of the results.
readout kind: activity, negative = inhibition

molecule | readout kind | assay result
O=P(O)(O)c1ccccc1 (tested in a mixture with another compound) | activity, negative = inhibition | 7.14% [at 11.4 µM] (inactive)
COc1ccc(C(=O)O[C@H]2CC[C@@]3(C)[C@H]4CC[C@H]5[C@]3(C[C@]3(O)[C@H]6CN7C[C@H](C)CC[C@H]7[C@](C)(O)[C@]6(O)[C@H](O)C[C@]53O)O[C@]24O)cc1OC | activity, negative = inhibition | -20.9% [at 2.29 µM] (inactive)
COC(=O)[C@H]1[C@@H](c2ccccc2)[C@@]2(c3ccccc3)Oc3ccccc3[C@@]1(O)[C@@H]2O | activity, negative = inhibition | 4.61% [at 11.4 µM] (inactive)
CCc1cc2c(nc1CC)CCN(CC/C(C)=N/OC)C2 | activity, negative = inhibition | -0.582% [at 11.4 µM] (inactive)
COCOc1ccc(Br)cc1C(=O)/C=C\c1ccc2c(c1)OCO2 | activity, negative = inhibition | -3.01% [at 11.4 µM] (inactive)

Query: Look up activity, negative = inhibition with Cytochrome P450 1A2 (Homo sapiens) (UniProt P05177) for this molecule: "C[C@H](c1ccccc1)N1CCN([C@@H](C)c2ccccc2)CC1"
Response: -16% [at 2.29 µM] (inactive)

Query: Look up activity, negative = inhibition with Cytochrome P450 1A2 (Homo sapiens) (UniProt P05177) for this molecule: "Cn1c(=O)c2[nH]cnc2n(C)c1=O.[CH2-][C@H](Cc1cccc2cc(C(=O)O)c(=O)oc12)OC.[Hg].[OH-]"
Response: -15.3% [at 11.4 µM] (inactive)
